Items are presented alongside their recorded growth inhibition.
experiment: NCI Yeast Anticancer Drug Screen. Data for the mec2-1 strain (AID 157); settings: S. cerevisiae mec2-1 strain, at 50.0 µM, stronger effect = higher value
The panel holds about 79,000 compounds, 15% with a hit somewhere; the sample as a whole holds those more often. Calls of active or inactive are those of the source. Rule as the data show it: active = growth inhibition above about 70%; inactive = the rest.

Here's what some known entries look like.
• COC12C=CC(CC1)C(C)(C)C2=O (stereo not given) = -4.7% (inactive)
• CN(C)CC1CCc2ccccc2C1=O (stereo not given) = -37.2% (inactive)
• CCCC(=O)NC(Nc1ccc(S(=O)(=O)Nc2nc(C)cc(C)n2)cc1)(C(F)(F)F)C(F)(F)F = -37.9% (inactive)
• COc1ccc2c(c1)CCCN2c1ccc(N=C(N)N)cc1 = -6.35% (inactive)
• Cc1cccc[n+]1CC(=O)c1ccccc1 = 31.2% (inactive)

Req: Which growth inhibition value belongs to `N#CC(=C1c2ccccc2-c2ccccc21)c1ccccc1` ?
Resp: 7.1% (inactive)

Req: Which growth inhibition value belongs to `OCCCNc1nc2cc(Br)ccc2c2ccc(Br)cc12` ?
Resp: 4.75% (inactive)

Req: Which growth inhibition value belongs to NC(Cc1ccccc1CP(=O)(O)O)C(=O)O (stereo not given) ?
Resp: -41.1% (inactive)

Req: Which growth inhibition value belongs to `CC(=O)NCCCOc1ccc(N)cc1` ?
Resp: 4.05% (inactive)

Req: Which growth inhibition value belongs to `CC1=CCCCC1=O` ?
Resp: -4.35% (inactive)

Req: Which growth inhibition value belongs to `O=S(=O)(c1ccccc1)N1CCN(S(=O)(=O)c2ccccc2)c2ccccc21` ?
Resp: 23.9% (inactive)

Req: Which growth inhibition value belongs to `Nc1cc2c(cc1Br)-c1ccc(Br)cc1C2=O` ?
Resp: -6.65% (inactive)

Req: Which growth inhibition value belongs to `c1ccc2c(C3=NCCO3)cccc2c1` ?
Resp: 9.7% (inactive)

Req: Which growth inhibition value belongs to `O=C(OCc1ccccc1)c1ccc(NCc2cc(O)ccc2O)cc1` ?
Resp: 90.7% (active)

Req: Which growth inhibition value belongs to `O=C(NCCN1CCCCC1)c1cccc(I)c1` ?
Resp: -4.85% (inactive)

Req: Which growth inhibition value belongs to `Nc1cccc(=O)[nH]1` ?
Resp: -10.2% (inactive)

Req: Which growth inhibition value belongs to C/C1=C/C(C)CC(C)OC(=O)C(C)NC(=O)C(Cc2ccc(O)c(I)c2)N(C)C(=O)C(C)NC(=O)C(C)C1 (stereo not given) ?
Resp: 93.7% (active)

----------
assay: NCI Yeast Anticancer Drug Screen. Data for the mec2-1 strain (AID 157); settings: S. cerevisiae mec2-1 strain, at 50.0 µM, stronger effect = higher value
Compounds without any hit were thinned out: in the full panel of roughly 79,000, 15% have a hit.
Is growth inhibition at least -10%? Then t. If not, f.

Consider the following illustrative entries.
* O=C(C(O)c1ccccc1)N1CCCCC1 (centres undefined) | t
* O=C1C(C2CCCCC2)=C2OCC3COC2(O3)c2ccccc21 (centres undefined) | f
* COc1ccc(Nc2cnc3cc(N)ccc3n2)cc1OC | f
* COc1cc(/C=C/C(C)=O)ccc1OP(=O)(O)O | f
* Clc1ccc2noc(-c3ccccc3)c2c1 | t
* O=C(CC(=O)n1nc(-c2ccccc2)c(N=Nc2ccc(Cl)cc2)c1-c1ccccc1)Nc1ccc(Cl)cc1 | f

Req: Item `N#Cc1cccc(N2C(=O)c3ccc(C(=O)c4ccc5c(c4)C(=O)N(c4cccc(C#N)c4)C5=O)cc3C2=O)c1` with growth inhibition of -10% or above?
Resp: f

Req: Item COc1ccc(C(C)c2cc3c(cc2OC)OCO3)cc1 (centres undefined) with growth inhibition of -10% or above?
Resp: f

Req: Item `CCOc1ccc(-c2cc(-c3ccc(OCC)cc3)cc(-c3ccc(OCC)cc3)c2)cc1` with growth inhibition of -10% or above?
Resp: t

Req: Item `Cc1ccc(/C=C/c2ccc3ccccc3c2)cc1` with growth inhibition of -10% or above?
Resp: t

Req: Item `Clc1ccccc1-c1nnc(-c2cccc(-c3nnc(-c4ccccc4Cl)o3)n2)o1` with growth inhibition of -10% or above?
Resp: t
